Catalogue of inhibition values
targetEntity: Bifunctional protein GlmU (Mycobacterium tuberculosis (strain ATCC 25618 / H37Rv)) (UniProt P9WMN3)
Sequence (P9WMN3 whole entry, looked up): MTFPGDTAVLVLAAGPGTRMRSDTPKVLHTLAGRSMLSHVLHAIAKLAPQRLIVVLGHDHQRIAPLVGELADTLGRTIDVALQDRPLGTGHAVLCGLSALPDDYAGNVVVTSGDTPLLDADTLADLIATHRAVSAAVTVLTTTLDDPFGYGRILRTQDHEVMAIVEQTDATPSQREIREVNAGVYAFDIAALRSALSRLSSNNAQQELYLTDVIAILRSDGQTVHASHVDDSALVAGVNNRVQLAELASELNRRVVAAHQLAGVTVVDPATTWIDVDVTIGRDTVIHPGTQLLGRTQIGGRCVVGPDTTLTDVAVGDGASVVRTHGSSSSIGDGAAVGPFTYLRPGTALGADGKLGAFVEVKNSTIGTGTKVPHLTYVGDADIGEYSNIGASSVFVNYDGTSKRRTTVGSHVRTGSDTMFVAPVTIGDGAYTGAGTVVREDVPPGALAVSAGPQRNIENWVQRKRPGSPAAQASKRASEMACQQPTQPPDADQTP
experimentSummary: inhibition of mycobacterial GlmU enzyme – biochemical, glucosamine-1-phosphate acetyltransferase (AID 1376);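 also: 0% = complete reaction with vehicle and 100% = reaction without substrate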
measurementContext: M. tuberculosis GlmU acetyltransferase enzyme assay; active compounds read high;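 tested at 30 µM in the primary screen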
About 530 (0.24%) of roughly 220,000 compounds were called active. The sample as a whole holds a higher share of actives than the screen did. Entries with a potency or affinity are not part of this list.
readoutName: inhibition (%)

molecule | readoutNumber
CCC1=NN(C(=O)c2ccc(Br)cc2)C(O)(c2ccccc2)C1 (stereo unspecified) | 1.41
Cc1c(Cl)cccc1-n1c(SCC(=O)N2CCC(C(=O)O)CC2)nnc1-c1ccncc1 | -2.06
C[C@@H]1Cc2c(O)c(O)cc(O)c2C(=O)O1 | -2.99
Cc1c(Br)c(O)c(Br)c2sc(=O)oc12 | 14.6
CN(Cc1c(O)ccc2c1oc(=O)c1ccccc12)C1CCCCC1 | 14
Cc1ccc(-c2cc(O)cc3sc(=O)oc23)cc1C | -5.89
CC1CC(=O)c2c(cc3c(-c4c(O)cc(O)c5c(O)c6c(cc45)OC(C)CC6=O)c(O)cc(O)c3c2O)O1 (stereo unspecified) | 18.9
CCCCNC(=O)CNC(=S)N(Cc1ccccc1)Cc1cccs1 | 4.12
C=CCN(CC=C)Cc1c(O)ccc2c1oc(=O)c1ccccc12 | -2.23
Cc1ccc(NC(=S)N2CCCCC2CO)cc1C (stereo unspecified) | -3.71
CC(C)(O)C#Cc1ccc(CN2CCN(Cc3ccccc3)C(CCO)C2)s1 (stereo unspecified) | 3.34

---

targetEntity: Bifunctional protein GlmU (Mycobacterium tuberculosis (strain ATCC 25618 / H37Rv)) (UniProt P9WMN3)
experimentSummary: inhibition of mycobacterial GlmU enzyme – biochemical, glucosamine-1-phosphate acetyltransferase (AID 1376);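 also: 0% = complete reaction with vehicle and 100% = reaction without substrate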
measurementContext: M. tuberculosis GlmU acetyltransferase enzyme assay; active compounds read high;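 tested at 30 µM in the primary screen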
In all, about 220,000 compounds went through this assay and about 530 (0.24%) were called active. The sample as a whole holds a higher share of actives than the screen did. Potency and affinity values are given separately.

compound | unitDescriptor | inhibition
Cc1ccc(-c2nc(C)sc2CC(=O)Nc2nnc(C)s2)cc1 | % | -1.22
CC1=C(C#N)C(=O)NC(=O)/C1=C/c1ccc(-c2ccc(S(N)(=O)=O)cc2)o1 | % | 14.3
Cc1cc(C)c(C#N)c(SCC(=O)c2cccs2)n1 | % | 3.22
Oc1cccc(/C=N/NC(=S)Nc2cccnc2)c1O | % | 5.05
CCOC(=O)c1cc(-c2ccc(/C=C3/C(=O)NC(=O)C(C#N)=C3C)o2)ccc1Cl | % | -3.05
Cc1cc(C)c(C#N)c(SCC(=O)c2ccccc2)n1 | % | 2
COc1ccc(OC)c(NC=C2C(=O)OC3(CCCCC3)OC2=O)c1 | % | 2.73
N#Cc1c(N2CCCCC2)nc(N)c2c(N)nc(SCC(=O)O)cc12 | % | 13.1
COc1ccccc1OCc1ccc(C(=O)NCC2CCCO2)o1 (stereo not drawn) | % | 1.7
COc1cccc(C(=O)CSc2nnc(-c3cccs3)o2)c1 | % | 4.7
COc1ccccc1NC=C1C(=O)OC2(CCCCC2)OC1=O | % | 13.1
CN(C)S(=O)(=O)c1cccc(NC(=S)N/N=C/c2cc(Br)ccc2O)c1 | % | -0.84
O=C(COC(=O)c1ccc(S(=O)(=O)N2CCCC2)cc1)Nc1ccc(N2CCOCC2)cc1 | % | -1.26
COc1ccc(Cl)cc1N(C(C)C(=O)NC1CCCC1)S(C)(=O)=O (stereo not drawn) | % | -1.06
CN(C(=O)CCc1nnc(Cc2ccc(-c3ccccc3)cc2)o1)C1CCOCC1 | % | 2.22
COc1cc(/C=C2/SC(=Nc3ccc(O)cc3)NC2=O)ccc1O | % | 35.3
Cc1ccc(NC(=O)Cc2sc(C)nc2-c2ccc(C)cc2)cc1 | % | -0.58
C=CCOc1ccc(Br)cc1/C=C1/SC(=Nc2ccc(C(=O)O)cc2)NC1=O | % | 15.9
CCOc1cc2c(C#N)c(N3CCCC3)nc(N)c2c(N)n1 | % | 4.64
CCOc1ccccc1NC=C1C(=O)OC2(CCCCC2)OC1=O | % | -1.31
N#Cc1c(N2CCCC2)nc(N)c2c(N)nc(N3CCCC3)cc12 | % | -6.67
CCCCC(CC)C1OCC(CN2CCCCC2)O1 (stereo not drawn) | % | 7.5
CCOC(=O)COc1cnc2ccccc2n1 | % | 1.75

---

targetEntity: Bifunctional protein GlmU (Mycobacterium tuberculosis (strain ATCC 25618 / H37Rv)) (UniProt P9WMN3)
experimentSummary: inhibition of mycobacterial GlmU enzyme – biochemical, glucosamine-1-phosphate acetyltransferase (AID 1376);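 also: 0% = complete reaction with vehicle and 100% = reaction without substrate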
measurementContext: M. tuberculosis GlmU acetyltransferase enzyme assay;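 tested at 30 µM in the primary screen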
Among all 220,000 compounds or so, about 530 (0.24%) were called active. Cut-off read from the data, not from the text of the source: active = inhibition above about 13%; inconclusive = no clear call, values can overlap the other calls; inactive = below that. The full list was thinned out, with actives kept by preference. Entries with a potency or affinity are not part of this list.
Outcome codes: 1 (active), -1 (inactive)

molecule | classLabel
Cc1ccc(OCC(=O)N2CCOCC2)c([N+](=O)[O-])n1 | -1
CCOC(=O)CC(=O)CSc1nc(-c2cccnc2)ccc1C#N | -1
COc1cc(/C=N/N2C(=O)CSC2=S)ccc1O | -1
O=C1c2ccccc2C(=O)N1/N=C/c1ccc(O)c(O)c1O | -1
CCC(=O)Nc1cccc(C2=NOC3(C2)C[C@@H](C(N)=O)N(C(=O)C(c2ccccc2)c2ccccc2)C3)c1 (stereo partly specified) | -1
O=C(N/N=C/C=C/c1ccco1)/C(=C/c1ccccc1)NC(=O)c1ccccc1 | -1
CC(=O)Nc1cccc(Oc2ccc([N+](=O)[O-])cc2Cl)c1 | -1
O=C(O)c1ccc(N=Nc2c(O)[nH]c3ccccc23)cc1 | -1
O=C1Nc2ccccc2/C1=N\N=C\c1ccc(O)c(O)c1 | 1
NC(=O)[C@@H]1CC2(CC(c3cccc(NC(=O)COc4ccc(Cl)cc4)c3)=NO2)CN1C(=O)COc1ccc(Cl)cc1 (stereo partly specified) | -1
Cc1cc(/C=N/Nc2ccc([N+](=O)[O-])cn2)c(C)n1-c1ccc(C(=O)O)cc1 | 1
CCCCCC(=O)c1c(C)[nH]c(C(=O)OCC)c1C | -1
O=C(O)c1ccc(N=Nc2c(O)[nH]c3cc(Cl)ccc23)cc1 | -1
C/C=C(/C)C(=O)Nc1cccc(C2=NOC3(C2)C[C@@H](C(N)=O)N(C(=O)CC(c2ccccc2)c2ccccc2)C3)c1 (stereo partly specified) | -1
O=C(Nc1cccc(C(F)(F)F)c1)c1ccco1 | -1
CCC1=C(OC(=O)N(CC)CC)N2C(=O)OC(=NCC3CC3)[C@]2(C)[C@H]2C1=CC[C@H]1C(=O)N(CC)C(=O)[C@H]12 | -1
CN(Cc1cnn(C)c1)S(=O)(=O)c1cccc([N+](=O)[O-])c1 | -1
Cc1ccccc1-n1c(C)cc(/C=C2/C(=N)N3C(c4ccccc4)=CSC3=NC2=O)c1C | -1
COc1cccc(/C=N/N2C(=O)CSC2=S)c1O | -1
C/C=C(\C)C(=O)Nc1cccc(C2=NOC3(C2)C[C@H](C(N)=O)N(C(=O)C(c2ccccc2)c2ccccc2)C3)c1 (stereo partly specified) | -1
O=C1Nc2ccccc2/C1=N/N=C/c1cccc(O)c1 | -1

---

targetEntity: Bifunctional protein GlmU (Mycobacterium tuberculosis (strain ATCC 25618 / H37Rv))
experimentSummary: inhibition of mycobacterial GlmU enzyme – biochemical, glucosamine-1-phosphate acetyltransferase (AID 1376);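 also: 0% = complete reaction with vehicle and 100% = reaction without substrate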
measurementContext: M. tuberculosis GlmU acetyltransferase enzyme assay;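 tested at 30 µM in the primary screen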
Out of some 220,000 compounds screened, about 530 (0.24%) were called active. Cut-off read from the data, not from the text of the source: active = inhibition above about 13%; inconclusive = no clear call, values can overlap the other calls; inactive = below that. The sample holds actives, similar compounds and a random draw of the others, so the mix is not that of the screen. Entries with a potency or affinity are not part of this list.
Outcome codes: active, inactive

compound | classLabel
Cc1ccc(OCC(=O)Nc2ccc3c(c2)OCO3)c(C)c1 | inactive
CCCCCCCCCCCC(=O)N/N=C/c1ccco1 | inactive
O=C1C=C(N2CCOCC2)C2(CCCCC2)O1 | inactive
CC(Sc1nnc2ccccn12)C(=O)Nc1ccc(Cl)cn1 (centres undefined) | inactive
Cn1cccc1/C=C1\C(=O)NC(=O)N(Cc2ccccc2)C1=O | active
CC12CCC(C(=O)NCc3ccccc3)(OC1=O)C2(C)C (centres undefined) | inactive
Cc1cc(/C=C2\C(=O)NC(=O)N(Cc3ccccc3Cl)C2=O)c(C)n1-c1ccc(C(=O)O)cc1 | inactive
CS(=O)(=O)N(CC(=O)Nc1c(F)cccc1F)c1cccc([N+](=O)[O-])c1 | inactive
Cc1ccc(C)n1-c1cccc(C(=O)O)c1 | active
CCn1c2ccccc2c2cc(NC(=O)CSc3nnc(-c4cccc(OC)c4)n3N)ccc21 | active
CCC(c1nnnn1CCC(C)C)N1CCC(C(N)=O)CC1 (centres undefined) | inactive
O=c1cc(-c2ccc(O)cc2)oc2ccc(O)cc12 | inactive
Cn1cccc1/C=C1/C(=O)NC(=O)N(Cc2ccc(F)cc2)C1=O | inactive
CCn1c2ccccc2c2cc(NC(=O)CSc3nnc(-c4ccc(OC)cc4)n3N)ccc21 | inactive
C=CCOc1ccc(Br)cc1/C=N/O | inactive
Clc1cccc(/C=N/Nc2nc(Cl)nc3ccccc23)c1 | inactive
Cc1cc(C=O)c(C)n1-c1cccc(C(=O)O)c1 | inactive
Cn1cccc1/C=C1/C(=O)NC(=O)N(Cc2ccccc2)C1=O | inactive
C(=N\Nc1ncnc2ccccc12)/c1ccccc1 | inactive
NS(=O)(=O)c1cc(C(=O)OCC(=O)NC2CC2)ccc1Cl | inactive
CCn1c2ccccc2c2cc(NC(=O)CSc3nnc(-c4ccc(OC)c(OC)c4)n3N)ccc21 | inactive
Cc1cccc2cc(C#N)c(NCc3ccccc3)nc12 | inactive
Cc1ccc(-c2ccccc2)n1-c1cccc(C(=O)O)c1 | inactive
CCOc1cc(/C=C2/C(=O)ON=C2C)ccc1OCc1ccccc1F | inactive
